Give measured EC50 for each item. Keep answers brief.
Test system: Caco-2 cells
Settings: read-out: EC50 (nM), ± SEM, wound healing; Caco-2 assay
One number for each entry, in nM.

Compound | Measured value
CN(C)C(CNC(=O)Nc1cc(C(F)(F)F)ccc1N1CCOCC1)c1ccncc1.Cl (stereo not drawn) [Compound 5aHCl] | 3.01
CN(C)C(CNC(=O)Nc1cc(F)ccc1N1CCOCC1)c1ccncc1.Cl (stereo not drawn) [Compound 10bHCl] | 2.36

Looking up COCCOCCOc1ccc(N2CCOCC2)c(NC(=O)NCC(c2ccncc2)N(C)C)c1.Cl (stereo not drawn) [Compound 10kHCl] , I found its EC50 recorded as 3.01

* * *

Target: FAK (Homo sapiens, UniProt Q05397)
Sequence (Q05397 whole entry): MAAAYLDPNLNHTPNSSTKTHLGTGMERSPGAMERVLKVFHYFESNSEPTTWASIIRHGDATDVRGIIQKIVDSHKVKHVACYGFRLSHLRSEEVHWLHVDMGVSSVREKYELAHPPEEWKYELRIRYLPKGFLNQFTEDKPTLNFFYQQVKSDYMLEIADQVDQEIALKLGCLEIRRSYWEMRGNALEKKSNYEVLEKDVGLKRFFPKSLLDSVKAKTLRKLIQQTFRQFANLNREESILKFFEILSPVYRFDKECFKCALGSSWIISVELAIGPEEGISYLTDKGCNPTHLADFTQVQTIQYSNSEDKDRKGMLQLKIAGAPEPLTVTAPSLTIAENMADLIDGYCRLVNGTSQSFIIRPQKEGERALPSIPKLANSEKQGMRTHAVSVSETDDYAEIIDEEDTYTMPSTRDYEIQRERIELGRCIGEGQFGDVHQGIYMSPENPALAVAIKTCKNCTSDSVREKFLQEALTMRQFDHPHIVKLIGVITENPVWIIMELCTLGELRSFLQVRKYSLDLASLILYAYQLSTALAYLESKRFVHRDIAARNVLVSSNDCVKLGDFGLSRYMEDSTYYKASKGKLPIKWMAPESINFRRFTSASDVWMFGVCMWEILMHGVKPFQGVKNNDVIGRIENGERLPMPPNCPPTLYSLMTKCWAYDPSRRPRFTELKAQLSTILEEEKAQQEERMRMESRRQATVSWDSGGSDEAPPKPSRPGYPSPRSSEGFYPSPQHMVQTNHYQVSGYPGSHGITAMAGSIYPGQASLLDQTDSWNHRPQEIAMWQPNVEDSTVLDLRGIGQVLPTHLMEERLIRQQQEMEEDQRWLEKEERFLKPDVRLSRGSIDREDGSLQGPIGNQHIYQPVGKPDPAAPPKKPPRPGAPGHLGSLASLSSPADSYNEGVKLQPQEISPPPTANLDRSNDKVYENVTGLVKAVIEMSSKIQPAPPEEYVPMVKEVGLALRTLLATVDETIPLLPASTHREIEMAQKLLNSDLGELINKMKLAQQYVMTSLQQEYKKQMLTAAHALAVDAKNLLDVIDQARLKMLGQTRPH
Details: 100 nM; 1 h; relative to vehicle control; n = 8 measurements
Classification field: enter fulfilled for FAK-Tyr-397/FAK fold change, ± SEM values not below 1 fold change, not fulfilled for values below it.

// below: answered compounds
Compound | Target entity | Class assignment
CC(C)(CNC(=O)Nc1cc(C(F)(F)F)ccc1N1CCOCC1)c1ccncc1.Cl [Compound 6HCl] | FAK (Homo sapiens, UniProt Q05397) | fulfilled
COc1ccc(N2CCOCC2)c(NC(=O)NCC(c2ccncc2)N(C)C)c1 (centres unmarked) [Compound 10h] | FAK (Homo sapiens, UniProt Q05397) | fulfilled

Query :: Determine whether this compound has FAK-Tyr-397/FAK fold change, ± SEM no lower than 1 fold change: COCOc1ccc(N2CCOCC2)c(NC(=O)NCC(c2ccncc2)N(C)C)c1 (centres unmarked) [Compound 10i]
Result :: fulfilled

Query :: Hi team, for Cl.O=C(NCCc1cnccn1)Nc1cc(C(F)(F)F)ccc1N1CCOCC1 [Compound 8HCl] , is the recorded FAK-Tyr-397/FAK fold change, ± SEM at or above 1 fold change?
Result :: fulfilled

* * *

Biological target: FAK (Homo sapiens, UniProt Q05397)
Conditions: 100 nM; 1 h; relative to vehicle control; n = 8 measurements
Exercise: state measured FAK-Tyr-397/FAK fold change, ± SEM for each of the molecules provided.
Numbers only, in fold change.

Molecule | Measured value
CN(C)C(CNC(=O)Nc1cc(C(F)(F)F)ccc1N1CCOCC1)c1cccnc1 (centres unmarked) [Compound 5b] | 1.0
O=C(NCCc1ccncc1)Nc1cc(C(F)(F)F)ccc1N1CCOCC1 [Compound 7] | 0.98
CN(C)C(CNC(=O)Nc1cc(OCCOCCO)ccc1N1CCOCC1)c1ccncc1 (centres unmarked) [Compound 10m] | 0.93
COCCOCCOCCOc1ccc(N2CCOCC2)c(NC(=O)NCC(c2ccncc2)N(C)C)c1 (centres unmarked) [Compound 10l] | 1.13
COCCNC(=O)C(Cc1ccncc1)NC(=O)Nc1cc(C(F)(F)F)ccc1N1CCOCC1 (centres unmarked) [Compound 9b] | 0.97
CN(C)C(CNC(=O)Nc1cc(C(F)(F)F)ccc1N1CCOCC1)c1ccccn1 (centres unmarked) [Compound 5c] | 0.84
CC(C)(CNC(=O)Nc1cc(C(F)(F)F)ccc1N1CCOCC1)c1ccncc1 [Compound 6] | 1.09

Next molecule, please.
The reported value for CN(C)C(CNC(=O)Nc1ccccc1N1CCOCC1)c1ccncc1 (centres unmarked) [Compound 10a] in terms of FAK-Tyr-397/FAK fold change, ± SEM is 1.23

* * *

Target: UniProtKB Q05397
Conditions: 100 nM; 1 h; relative to vehicle control; n = 8 measurements
I would appreciate it if you labelled entries TRUE when FAK-Tyr-397/FAK fold change, ± SEM is 0.9 fold change or higher, otherwise FALSE.

Compound | Class assignment
CN(C)C(CNC(=O)Nc1cc(C(F)(F)F)ccc1N1CCOCC1)c1ccccn1.Cl (stereo not shown) [Compound 5cHCl] | TRUE
COCCOCCOc1ccc(N2CCOCC2)c(NC(=O)NCC(c2ccncc2)N(C)C)c1 (stereo not shown) [Compound 10k] | TRUE
CN(C)C(CNC(=O)Nc1cc(C#N)ccc1N1CCOCC1)c1ccncc1 (stereo not shown) [Compound 10d] | FALSE
COCCOc1ccc(N2CCOCC2)c(NC(=O)NCC(c2ccncc2)N(C)C)c1 (stereo not shown) [Compound 10j] | TRUE
COC(=O)C(Cc1ccncc1)NC(=O)Nc1cc(C(F)(F)F)ccc1N1CCOCC1 (stereo not shown) | TRUE

Query :: Is it the case that CN(C)C(CNC(=O)Nc1cc(C(F)(F)F)ccc1N1CCOCC1)c1cccnc1.Cl (stereo not shown) [Compound 5bHCl] has FAK-Tyr-397/FAK fold change, ± SEM reaching or exceeding 0.9 fold change?
Result :: TRUE
